Each item that follows carries a reported IC50.
biological target: human ADAMTS-4 protease (Homo sapiens, UniProt O75173); assay: Inhibition of ADAMTS-4 activity (rAgg1mut substrate, neo-epitope ELISA); settings: recombinant human ADAMTS-4, rAgg1mut substrate
Sequence (O75173 213-837): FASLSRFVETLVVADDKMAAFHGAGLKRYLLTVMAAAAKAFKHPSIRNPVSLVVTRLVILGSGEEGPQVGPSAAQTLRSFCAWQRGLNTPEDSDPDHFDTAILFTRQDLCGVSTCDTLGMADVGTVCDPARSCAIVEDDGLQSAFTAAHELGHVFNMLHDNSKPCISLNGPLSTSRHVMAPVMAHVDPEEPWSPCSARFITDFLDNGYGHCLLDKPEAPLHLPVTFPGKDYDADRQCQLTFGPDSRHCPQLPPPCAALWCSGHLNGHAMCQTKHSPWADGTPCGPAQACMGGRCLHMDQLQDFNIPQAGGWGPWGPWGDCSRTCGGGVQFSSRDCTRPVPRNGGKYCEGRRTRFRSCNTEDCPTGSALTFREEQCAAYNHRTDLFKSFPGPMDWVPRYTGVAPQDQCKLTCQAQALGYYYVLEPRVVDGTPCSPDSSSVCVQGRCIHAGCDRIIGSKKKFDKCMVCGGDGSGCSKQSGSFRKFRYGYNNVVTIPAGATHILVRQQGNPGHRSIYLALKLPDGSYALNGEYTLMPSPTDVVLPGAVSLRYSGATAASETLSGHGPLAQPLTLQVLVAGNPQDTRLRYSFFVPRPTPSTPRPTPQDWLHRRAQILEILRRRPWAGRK
Where a name gives a salt, the structure may show the parent alone.
Please give a number only; it is taken to be in nM.

Example cases with answers are listed next.
# Compound, Measured Result
data = [
    ("CC(C)C(C(=O)NO)N1CCN(Cc2ccc(OCc3ccccc3)cc2)C1=O (stereo not shown)", 2100),
    ("CC(C)C(C(=O)NO)N1CCN(Cc2ccc(Oc3ccccc3)cc2)C1=O (stereo not shown)", 1330),
    ("Cc1cc(COc2ccc(CN3CCN(C(C(=O)NO)C(C)C)C3=O)cc2)c2ccccc2n1 (stereo not shown) [Example 14, TFA]", 1140),
]

Specify reported IC50 for the compound shown: CC(C)C(C(=O)NO)N1CCN(Cc2ccc(OCc3ccccn3)cc2)C1=O (stereo not shown) [Example 12, TFA]
7000

====

Each item that follows carries a reported pIC50.
target: TNFα-converting enzyme (TACE) (Homo sapiens, UniProt P78536); construct: purchased R&D Systems; assay: Inhibition of TACE activity (fluorimetric peptide substrate cleavage); assay type: biochemical; conditions: recombinant TACE (R&D Systems), MCA peptide substrate, fluorimeter; read-out: Inhibition of TACE activity (IC50)
Sequence (P78536 215-824): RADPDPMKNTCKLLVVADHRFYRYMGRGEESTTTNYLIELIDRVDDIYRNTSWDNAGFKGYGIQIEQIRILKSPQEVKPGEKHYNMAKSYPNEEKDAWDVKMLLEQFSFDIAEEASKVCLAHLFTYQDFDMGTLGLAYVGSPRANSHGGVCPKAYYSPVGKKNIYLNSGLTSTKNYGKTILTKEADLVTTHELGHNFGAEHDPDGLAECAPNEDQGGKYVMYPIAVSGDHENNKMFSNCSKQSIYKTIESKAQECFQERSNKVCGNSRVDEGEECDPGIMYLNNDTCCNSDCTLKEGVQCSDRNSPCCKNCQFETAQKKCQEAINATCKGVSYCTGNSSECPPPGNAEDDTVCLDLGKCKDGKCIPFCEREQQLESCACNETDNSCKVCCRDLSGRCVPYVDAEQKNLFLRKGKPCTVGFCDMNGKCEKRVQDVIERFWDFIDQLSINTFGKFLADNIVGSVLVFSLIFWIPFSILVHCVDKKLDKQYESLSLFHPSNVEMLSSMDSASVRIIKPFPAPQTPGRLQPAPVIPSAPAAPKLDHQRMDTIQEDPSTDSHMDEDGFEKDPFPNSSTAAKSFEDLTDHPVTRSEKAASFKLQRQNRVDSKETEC
Structures can show the parent of a compound that is named as a salt.
# pIC50 = -log10(concentration in molar units)

# Compound, Reported Property, Measured Result
records = [
    ("Cc1cc(COc2ccc(CN3CCN(C(C(=O)NO)C(C)C)C3=O)cc2)c2ccccc2n1 (stereo not drawn) [Example 14, TFA]", "pIC50", 8.00),
]

Next item in the queue.
Specify reported pIC50 for the compound shown: CC(C)C(C(=O)NO)N1CCN(Cc2cccc(O)c2)C1=O (stereo not drawn) [Example 9]
5.52

====

target: human ADAMTS-4 protease (Homo sapiens); test: Inhibition of ADAMTS-4 activity (rAgg1mut substrate, neo-epitope ELISA); conditions: recombinant human ADAMTS-4, rAgg1mut substrate
Counter-ions that a name gives are not always drawn.
Reported Property: IC50
Form field: result (number plus unit)

Example cases with answers are listed next.
# Compound, Measured Result
records = [
    ("COc1ccc(CC2CN(Cc3ccc(OCc4ccccc4)cc3)C(=O)N2C(C(=O)NO)C(C)C)cc1 (centres unmarked) [Example 16]", "1.39 µM"),
    ("CC(C)C(C(=O)NO)N1C(=O)N(Cc2ccc(OCc3ccccc3)cc2)CC1Cc1ccc2c(c1)OCO2 (centres unmarked) [Example 18]", "3.16 µM"),
    ("CC(C)C(C(=O)NO)N1CCN(Cc2ccc(OCc3ccncc3)cc2)C1=O (centres unmarked) [Example 10, TFA]", "0.9 µM"),
    ("CC(C)C(C(=O)NO)N1CCN(Cc2ccc(OCc3ccccc3)nc2)C1=O (centres unmarked) [Example 5]", "10 µM"),
    ("COc1ccc(CC2CN(Cc3ccccc3)C(=O)N2C(C(=O)NO)C(C)C)cc1 (centres unmarked) [Example 15]", "17 µM"),
    ("CC(C)C(C(=O)NO)N1CCN(Cc2cccc(O)c2)C1=O (centres unmarked) [Example 9]", "72.4 µM"),
    ("CC(C)C(C(=O)NO)N1CCN(Cc2ccc(OCc3cccnc3)cc2)C1=O (centres unmarked) [Example 11, TFA]", "7.8 µM"),
]

Next item in the queue.
Would you please give the reported IC50 of CC(C)C(C(=O)NO)N1CCN(c2ccc(OCc3ccccc3)cc2)C1=O (centres unmarked) [Example 2] with human ADAMTS-4 protease (Homo sapiens)?
55 µM
